B1: TPR t1 (parent)
chain: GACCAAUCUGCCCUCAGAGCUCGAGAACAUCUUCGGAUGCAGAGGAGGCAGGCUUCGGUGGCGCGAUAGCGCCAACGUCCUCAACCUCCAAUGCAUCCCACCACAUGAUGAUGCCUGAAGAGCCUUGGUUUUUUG

Variants of: B1
Assay: polymerase ribozyme fitness, log enrichment relative to wild type (log ratio); higher = more active; in vitro selection for triplet polymerase activity
outcome_measure: polymerase ribozyme fitness (log ratio)
Answers are plain numbers.

| variant_spec | meas_value |
| --- | --- |
| C40A C56G G61A | -4.03 |

Batch request: polymerase ribozyme fitness (log ratio) per item, same order as input.
1. C11U A29U
2. G10U G110A
3. A6G A66U C73G A75U C80U G120U U129G
4. C11U U30A G61U
5. G77C C89U G128C

OUT:
1: -2.46; 2: -1.35; 3: -4.99; 4: -4.45; 5: -3.81
